Target: Heat shock protein HSP 90-alpha (Homo sapiens)
Assay type: functional, organism-based
The source made the active and inactive calls.
Field: AC50. Provide a value for each of the molecules that follow.

Noted for `COc1ccc2c(c1)OC[C@H]1[C@H]2N2C(=O)c3cc(C)ccc3NC(=O)[C@@]2(C)[C@H]1c1ccccc1` : its AC50 reads 1.86 µM (active)

Noted for `Clc1ccccc1C(c1ccccc1)(c1ccccc1)n1ccnc1` : its AC50 reads < 0.195 µM (active)

Noted for `COc1ccc(-c2nnc3n(CCc4ccccc4)c(=O)c4ccccc4n23)c(OC)c1` : its AC50 reads 7.83 µM (active)

Noted for `COc1ccc(C(=O)COC(=O)c2cc([N+](=O)[O-])ccc2N2CCOCC2)c(OC)c1` : its AC50 reads 10.2 µM (active)

Noted for `O=C(/C=C/c1cccc([N+](=O)[O-])c1)c1ccco1` : its AC50 reads 4 µM (active)

Noted for CC1CC(C)C(=NNC(N)=O)C(C(O)CC2CCC(=O)NC2=O)C1 (configuration not stated) : its AC50 reads < 0.195 µM (active)

Noted for `CCCCCCCCNC(=O)/C(C#N)=C/c1ccccc1[N+](=O)[O-]` : its AC50 reads 4.28 µM (active)

====

Target: Corticotropin-releasing factor receptor 2/Corticotropin-releasing factor-binding protein (Homo sapiens, UniProt P24387+Q13324)
Sequence (Q13324 whole entry): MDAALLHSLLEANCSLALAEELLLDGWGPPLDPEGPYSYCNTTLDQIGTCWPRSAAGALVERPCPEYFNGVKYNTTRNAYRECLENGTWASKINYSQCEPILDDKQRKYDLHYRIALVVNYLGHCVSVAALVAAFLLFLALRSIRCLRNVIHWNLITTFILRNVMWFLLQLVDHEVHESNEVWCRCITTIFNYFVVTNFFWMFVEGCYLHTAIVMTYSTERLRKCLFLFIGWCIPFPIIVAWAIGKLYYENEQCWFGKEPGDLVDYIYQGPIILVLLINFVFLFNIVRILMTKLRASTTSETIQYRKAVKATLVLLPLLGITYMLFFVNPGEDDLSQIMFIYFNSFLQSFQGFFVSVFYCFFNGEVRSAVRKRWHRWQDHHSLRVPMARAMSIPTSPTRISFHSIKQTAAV
Sequence (P24387 whole entry): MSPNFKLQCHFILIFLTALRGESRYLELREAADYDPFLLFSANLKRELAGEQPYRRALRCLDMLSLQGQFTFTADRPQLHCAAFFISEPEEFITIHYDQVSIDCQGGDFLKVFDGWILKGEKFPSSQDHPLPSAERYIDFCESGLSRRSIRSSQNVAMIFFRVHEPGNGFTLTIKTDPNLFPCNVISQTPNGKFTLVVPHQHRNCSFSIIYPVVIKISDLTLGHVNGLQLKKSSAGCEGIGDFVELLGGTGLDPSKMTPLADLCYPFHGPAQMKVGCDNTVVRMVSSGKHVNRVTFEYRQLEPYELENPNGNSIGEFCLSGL
Test: activators of CRF receptor 2 with binding protein – uHTS hits, confirmation (AID 602473)
Format: functional
Conditions: read-out: EC50_Mean
The source made the active and inactive calls.
Form entry, call: pick from 1 (yes) = active, 0 (no) = inactive

Ask: Answer briefly: the call reported for `CCc1nnc(NC(=O)CCC(=O)N2CCN(Cc3cc(Cl)ccc3OC)CC2)s1` in this assay.
Reply: 0 (no)

Ask: Answer briefly: the call reported for Fc1ccc(C2c3cccn3CCN2C(S)=Nc2cccc(F)c2)cc1 (stereo unspecified) in this assay.
Reply: 0 (no)

Ask: Answer briefly: the call reported for `CCCNC(=O)c1ccc(CN2CCc3ccccc3C2)cc1` in this assay.
Reply: 0 (no)

Ask: Answer briefly: the call reported for `O=C1/C(=C/c2ccc(O)cc2)SC(=S)N1Cc1cccnc1` in this assay.
Reply: 1 (yes)

Ask: Answer briefly: the call reported for `COc1cccc(CNC(=O)CN(c2ccc(C(C)C)cc2)S(=O)(=O)c2c(C)noc2C)c1` in this assay.
Reply: 0 (no)

Ask: Answer briefly: the call reported for `CC1=[N+]([O-])C(C)(C)N(O)C1(C)C` in this assay.
Reply: 0 (no)

Ask: Answer briefly: the call reported for CC1C/C(=N\NC(=O)c2ccc([N+](=O)[O-])cc2)CC(C)(C)C1 (stereo unspecified) in this assay.
Reply: 0 (no)

Ask: Answer briefly: the call reported for `Cc1ccc(NC(=O)COC(=O)CCc2c[nH]c3ccccc23)c(C)c1` in this assay.
Reply: 0 (no)

Ask: Answer briefly: the call reported for CCOC(=O)C(CC)/C(C)=N\NC(=O)c1cccc(C)c1 (stereo unspecified) in this assay.
Reply: 0 (no)

Ask: Answer briefly: the call reported for `Cc1nc2ccccc2nc(C)c1=NOCc1ccccc1Cl` in this assay.
Reply: 0 (no)

Ask: Answer briefly: the call reported for `O=C(NCCO)c1nc(C(=O)c2ccc(Cl)cc2)c2ccccc2n1` in this assay.
Reply: 0 (no)

Ask: Answer briefly: the call reported for `Cc1cccc(C(=O)N2CCc3ccccc3C2)c1[N+](=O)[O-]` in this assay.
Reply: 0 (no)

Ask: Answer briefly: the call reported for O=C1CC(c2ccccc2)SC(N(c2ccccc2)c2ccccc2)=N1 (stereo unspecified) in this assay.
Reply: 0 (no)

Ask: Answer briefly: the call reported for `N#Cc1ccc(S(=O)(=O)N2CCN(C(=O)[C@@H]3CCCN3C(=O)c3cccs3)CC2)cc1` in this assay.
Reply: 0 (no)

Ask: Answer briefly: the call reported for `Cc1ccc(SCC(=O)Nc2cc([N+](=O)[O-])ccc2O)cc1` in this assay.
Reply: 1 (yes)

Ask: Answer briefly: the call reported for O=C1C=C(c2ccccc2)C(c2ccccc2)C1O (stereo unspecified) in this assay.
Reply: 0 (no)
